- TARGET_UNDER_TEST: Human CD39 (NTPDase1) (Homo sapiens, UniProt P49961)
- Sequence (P49961 whole entry): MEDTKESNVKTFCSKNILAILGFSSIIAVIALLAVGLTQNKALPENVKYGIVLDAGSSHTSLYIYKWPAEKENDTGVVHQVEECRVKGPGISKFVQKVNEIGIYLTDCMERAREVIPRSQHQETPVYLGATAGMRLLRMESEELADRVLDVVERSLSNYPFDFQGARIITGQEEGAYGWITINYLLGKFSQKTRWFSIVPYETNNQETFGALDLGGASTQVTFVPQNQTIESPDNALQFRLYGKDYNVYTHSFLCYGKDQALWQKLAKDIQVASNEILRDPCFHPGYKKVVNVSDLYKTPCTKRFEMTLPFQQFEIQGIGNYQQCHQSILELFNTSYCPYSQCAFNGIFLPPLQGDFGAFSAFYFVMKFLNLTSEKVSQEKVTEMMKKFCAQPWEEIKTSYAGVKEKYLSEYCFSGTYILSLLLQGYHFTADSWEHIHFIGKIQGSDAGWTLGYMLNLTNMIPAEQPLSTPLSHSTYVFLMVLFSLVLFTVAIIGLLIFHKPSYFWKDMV
- TEST_DETAILS: Inhibition of human CD39 (NTPDase1), 100 μM ADP as substrate
- Format: biochemical
- CONDITION_DETAILS: 100 μM ADP as a substrate; read-out: Ki ± SD (μM), Human CD39 (NTPDase1)
ENDPOINT_LABEL: Ki

1. Nc1ncnc2c1ncn2COCCOP(O)(=S)OCCOCn1cnc2c(N)ncnc21: > 10 µM
2. Nc1ncnc2c1ncn2[C@@H]1O[C@H](COP(=O)(O)CP(=O)(O)O)[C@@H](O)[C@H]1O [AOPCP, reference compound]: > 10 µM
3. Nc1ncnc2c1ncn2COCCOP(=O)(O)CP(=O)(O)O: > 10 µM
4. Nc1ncnc2c1ncn2COCCO[PH](=O)O: > 10 µM
5. Nc1ncnc2c1ncn2COCCOP(=O)(O)C(Cl)(Cl)P(=O)(O)O: > 10 µM

====

- TARGET_UNDER_TEST: NPP1 (Homo sapiens, UniProt P22413)
- Sequence (P22413 whole entry): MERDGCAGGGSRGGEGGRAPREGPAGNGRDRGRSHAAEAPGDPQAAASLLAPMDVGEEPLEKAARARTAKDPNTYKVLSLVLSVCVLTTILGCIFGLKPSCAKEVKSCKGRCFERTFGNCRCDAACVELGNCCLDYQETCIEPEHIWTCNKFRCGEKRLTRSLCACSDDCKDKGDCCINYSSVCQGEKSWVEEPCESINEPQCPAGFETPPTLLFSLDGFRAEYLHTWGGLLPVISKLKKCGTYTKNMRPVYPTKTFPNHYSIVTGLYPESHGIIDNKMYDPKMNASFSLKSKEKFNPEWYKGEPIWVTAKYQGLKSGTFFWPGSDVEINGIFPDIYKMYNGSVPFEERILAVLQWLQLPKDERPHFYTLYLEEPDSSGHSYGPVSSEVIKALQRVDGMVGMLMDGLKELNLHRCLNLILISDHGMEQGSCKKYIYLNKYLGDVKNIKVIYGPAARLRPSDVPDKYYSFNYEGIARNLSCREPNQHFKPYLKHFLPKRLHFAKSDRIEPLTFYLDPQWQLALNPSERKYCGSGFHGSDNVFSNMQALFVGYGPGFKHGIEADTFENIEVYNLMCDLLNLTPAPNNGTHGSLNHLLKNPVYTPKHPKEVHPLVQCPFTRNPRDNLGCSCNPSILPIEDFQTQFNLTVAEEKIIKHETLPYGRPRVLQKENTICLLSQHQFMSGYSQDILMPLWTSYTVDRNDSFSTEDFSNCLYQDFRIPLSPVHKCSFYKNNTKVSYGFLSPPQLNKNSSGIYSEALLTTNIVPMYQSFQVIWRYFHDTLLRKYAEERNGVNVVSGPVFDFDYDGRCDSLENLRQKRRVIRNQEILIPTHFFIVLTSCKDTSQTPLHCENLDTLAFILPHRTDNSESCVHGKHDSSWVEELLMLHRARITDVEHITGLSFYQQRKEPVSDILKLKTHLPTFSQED
- TEST_DETAILS: Inhibition of human NPP1, 100 μM p-Nph-5′-TMP as substrate (Tables 5, 6)
- CONDITION_DETAILS: read-out: % inhibition ± SEM at 10 μM, human NPP1
Reported inhibition at 10 µM values are given for each entry in this list.
ENDPOINT_LABEL: inhibition at 10 µM

1. Nc1ncnc2c1ncn2COCCOP(=S)(S)OP(=O)(O)OP(=O)(O)O (stereo not shown): 74%
2. Nc1ncnc2c1ncn2COCCOP(=S)(S)OP(=O)(O)O (stereo not shown): 67%
3. Nc1ncnc2c1ncn2COCCOP(=S)(S)OP(=O)(O)CP(=O)(O)O (stereo not shown): 65%
4. Nc1ncnc2c1ncn2COCCOP(=S)(S)OP(=O)(O)C(Cl)(Cl)P(=O)(O)O (stereo not shown): 85%

====

Reported % inhibition ± SD at 10 μM, Human CD73 values are given for each entry in this list.
- TARGET_UNDER_TEST: Human CD73 (Homo sapiens, UniProt P21589)
- Sequence (P21589 27-549): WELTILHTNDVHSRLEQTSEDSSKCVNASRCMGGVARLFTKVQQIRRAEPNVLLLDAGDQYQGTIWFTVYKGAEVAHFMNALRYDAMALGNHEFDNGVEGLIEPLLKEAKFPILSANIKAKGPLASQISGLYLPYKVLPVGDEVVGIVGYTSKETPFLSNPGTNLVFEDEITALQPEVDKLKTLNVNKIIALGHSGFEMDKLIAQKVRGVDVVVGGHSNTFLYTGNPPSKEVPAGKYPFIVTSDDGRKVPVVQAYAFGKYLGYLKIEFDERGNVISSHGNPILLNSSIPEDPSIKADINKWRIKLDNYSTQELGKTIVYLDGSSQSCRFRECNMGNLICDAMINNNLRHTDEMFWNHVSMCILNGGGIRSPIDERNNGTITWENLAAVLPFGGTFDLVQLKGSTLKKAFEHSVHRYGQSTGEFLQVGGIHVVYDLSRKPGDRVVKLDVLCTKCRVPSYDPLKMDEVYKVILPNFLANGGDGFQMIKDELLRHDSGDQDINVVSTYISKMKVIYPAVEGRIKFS
- TEST_DETAILS: Inhibition of human CD73, 5 μM [2,8-3H]AMP as substrate
- Type: biochemical
- CONDITION_DETAILS: 10 μM; 5 μM [2,8-3H]AMP as a substrate; inactive = no inhibition at 10 μM
ENDPOINT_LABEL: % inhibition ± SD at 10 μM, Human CD73 (%)

1. Nc1ncnc2c1ncn2COCCOP(=O)(O)O [Compound 24]: 5
2. Nc1ncnc2c1ncn2COCCOP(=O)(O)C(Cl)(Cl)P(=O)(O)O [Compound 23]: 17
3. Nc1ncnc2c1ncn2[C@@H]1O[C@H](COS(=O)(=O)CS(=O)(=O)O)[C@@H](O)[C@H]1O [Compound 21]: 23
